src = patent US7786308B2

# test.system: M2 muscarinic receptor (Homo sapiens, UniProt P08172)
# Construct: expressed in transfected cells; host or cells: CHO (M2-CHO)
# Sequence (P08172 whole entry): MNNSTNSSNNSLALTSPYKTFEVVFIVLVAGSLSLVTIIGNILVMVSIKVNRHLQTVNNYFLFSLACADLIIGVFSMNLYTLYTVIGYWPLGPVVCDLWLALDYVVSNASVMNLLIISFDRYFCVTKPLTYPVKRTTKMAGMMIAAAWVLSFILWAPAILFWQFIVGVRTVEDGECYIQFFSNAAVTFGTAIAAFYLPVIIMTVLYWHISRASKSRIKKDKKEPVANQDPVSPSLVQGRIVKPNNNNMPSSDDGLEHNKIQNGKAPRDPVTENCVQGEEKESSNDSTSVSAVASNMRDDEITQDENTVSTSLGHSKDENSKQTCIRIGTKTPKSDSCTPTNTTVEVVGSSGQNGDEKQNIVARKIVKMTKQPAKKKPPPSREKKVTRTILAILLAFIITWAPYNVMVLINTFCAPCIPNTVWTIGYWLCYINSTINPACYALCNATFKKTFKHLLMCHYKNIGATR
# experiment.summary: cell-based
# details: read-out: M2 Activity
pEC50: −log10 of the molar value.

[
  {
    "compound": "CCOC(=O)N1C2CCC1CC(N1CCC(N(CC(=O)CC)c3ccc(F)cc3)CC1)C2 (stereo not shown)",
    "pEC50": "< 5.30"
  }
]

====

# test.system: M3 muscarinic receptor (Homo sapiens)
# Construct: expressed in transfected cells; host or cells: CHO (M3-CHO)
# Sequence (P20309 whole entry): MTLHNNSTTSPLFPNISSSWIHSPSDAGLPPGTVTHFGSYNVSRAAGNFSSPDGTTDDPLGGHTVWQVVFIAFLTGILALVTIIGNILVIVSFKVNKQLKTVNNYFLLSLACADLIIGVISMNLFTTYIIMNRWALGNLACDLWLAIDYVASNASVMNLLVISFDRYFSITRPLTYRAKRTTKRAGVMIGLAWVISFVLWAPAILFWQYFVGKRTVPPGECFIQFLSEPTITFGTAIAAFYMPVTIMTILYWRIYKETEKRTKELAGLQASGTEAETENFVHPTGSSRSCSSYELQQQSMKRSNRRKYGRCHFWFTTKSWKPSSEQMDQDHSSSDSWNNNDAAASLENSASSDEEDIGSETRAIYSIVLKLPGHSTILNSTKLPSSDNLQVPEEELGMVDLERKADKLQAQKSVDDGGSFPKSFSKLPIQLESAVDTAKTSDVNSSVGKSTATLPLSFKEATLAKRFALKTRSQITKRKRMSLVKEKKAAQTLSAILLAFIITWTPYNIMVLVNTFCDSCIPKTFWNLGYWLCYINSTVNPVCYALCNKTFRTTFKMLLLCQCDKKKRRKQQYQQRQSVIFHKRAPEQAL
# experiment.summary: cell-based
# details: read-out: M3 Efficacy

[
  {
    "molecule": "CCOC(=O)N1C2CCC1CC(N1CCC(N(C(C)=O)C3CCCCC3)CC1)C2 (centres unmarked)",
    "Emax": "25 to 100%"
  },
  {
    "molecule": "CCOC(=O)N1C2CCC1CC(N1CCC(N(C(C)=O)C(C)C)CC1)C2 (centres unmarked)",
    "Emax": "< 25%"
  },
  {
    "molecule": "CCOC(=O)N1C2CCC1CC(N1CCC(N(C)c3ccccc3)CC1)C2 (centres unmarked)",
    "Emax": "< 25%"
  },
  {
    "molecule": "CCOC(=O)N1C2CCC1CC(N1CCC(N(C)c3ccc(F)cc3)CC1)C2 (centres unmarked)",
    "Emax": "< 25%"
  },
  {
    "molecule": "CCCN(C1CCN(C2CC3CCC(C2)N3C(=O)OCC)CC1)S(=O)(=O)c1ccc(C(F)(F)F)cc1 (centres unmarked)",
    "Emax": "< 25%"
  },
  {
    "molecule": "CCOC(=O)N1C2CCC1CC(N1CCC(N(Cc3ccccc3)C(C)=O)CC1)C2 (centres unmarked)",
    "Emax": "25 to 100%"
  },
  {
    "molecule": "CCOC(=O)N1C2CCC1CC(N1CCC(N(c3ccc(F)cc3)S(C)(=O)=O)CC1)C2 (centres unmarked)",
    "Emax": "25 to 100%"
  },
  {
    "molecule": "CCOC(=O)N1C2CCC1CC(N1CCC(Nc3ccc(F)cc3)CC1)C2 (centres unmarked)",
    "Emax": "< 25%"
  }
]
